conditions: in diethyl ether, 303.15 K
Recorded Endpoint: solubility (mole fraction)

**Query** Please give the measured solubility (mole fraction) for this compound: CC(=CC(C)=Nc1c(C)cccc1C)Nc1c(C)cccc1C
**Result** 0.334

###

settings: in diethyl ether, 278.15 K
Recorded Endpoint: solubility (mole fraction)
Number only, please.

**Query** Please give the measured solubility (mole fraction) for this compound: CC(=CC(C)=Nc1c(C)cccc1C)Nc1c(C)cccc1C
**Result** 0.204

###

conditions: in ethanol, 303.15 K
Recorded Endpoint: solubility (mole fraction)

**Query** Please give the measured solubility (mole fraction) for this molecule: CC(=CC(C)=Nc1c(C)cccc1C)Nc1c(C)cccc1C
**Result** 0.0166

###

details: in diethyl ether, 288.15 K
Recorded Endpoint: solubility (mole fraction)
Number only, please.

**Query** Please give the measured solubility (mole fraction) for this compound: CC(=CC(C)=Nc1c(C)cccc1C)Nc1c(C)cccc1C
**Result** 0.239

###

conditions: in diethyl ether, 293.15 K
Recorded Endpoint: solubility (mole fraction)
Number only, please.

**Query** Please give the measured solubility (mole fraction) for this compound: CC(=CC(C)=Nc1c(C)cccc1C)Nc1c(C)cccc1C
**Result** 0.265

###

conditions: in diethyl ether, 298.15 K
Recorded Endpoint: solubility (mole fraction)
Number only, please.

**Query** Please give the measured solubility (mole fraction) for this compound: CC(=CC(C)=Nc1c(C)cccc1C)Nc1c(C)cccc1C
**Result** 0.295

###

conditions: in ethanol, 278.15 K
Recorded Endpoint: solubility (mole fraction)
Number only, please.

**Query** Please give the measured solubility (mole fraction) for this compound: CC(=CC(C)=Nc1c(C)cccc1C)Nc1c(C)cccc1C
**Result** 0.0099

###

settings: in methanol, 293.15 K
Recorded Endpoint: solubility (mole fraction)
Number only, please.

**Query** Please give the measured solubility (mole fraction) for this compound: CC(=CC(C)=Nc1c(C)cccc1C)Nc1c(C)cccc1C
**Result** 0.0029

###

conditions: in n-hexane, 283.15 K
Recorded Endpoint: solubility (mole fraction)
Number only, please.

**Query** Please give the measured solubility (mole fraction) for this compound: CC(=CC(C)=Nc1c(C)cccc1C)Nc1c(C)cccc1C
**Result** 0.223

###

settings: in toluene, 298.15 K
Recorded Endpoint: solubility (mole fraction)
Number only, please.

**Query** Please give the measured solubility (mole fraction) for this compound: CC(=CC(C)=Nc1c(C)cccc1C)Nc1c(C)cccc1C
**Result** 0.433

###

settings: in THF, 278.15 K
Recorded Endpoint: solubility (mole fraction)

**Query** Please give the measured solubility (mole fraction) for this compound: CC(=CC(C)=Nc1c(C)cccc1C)Nc1c(C)cccc1C
**Result** 0.362

###

conditions: in ethanol, 283.15 K
Recorded Endpoint: solubility (mole fraction)
Number only, please.

**Query** Please give the measured solubility (mole fraction) for this compound: CC(=CC(C)=Nc1c(C)cccc1C)Nc1c(C)cccc1C
**Result** 0.0107

###

settings: in THF, 288.15 K
Recorded Endpoint: solubility (mole fraction)
Number only, please.

**Query** Please give the measured solubility (mole fraction) for this compound: CC(=CC(C)=Nc1c(C)cccc1C)Nc1c(C)cccc1C
**Result** 0.403

###

settings: in toluene, 303.15 K
Recorded Endpoint: solubility (mole fraction)
Number only, please.

**Query** Please give the measured solubility (mole fraction) for this compound: CC(=CC(C)=Nc1c(C)cccc1C)Nc1c(C)cccc1C
**Result** 0.503

###

details: in toluene, 273.15 K
Recorded Endpoint: solubility (mole fraction)
Number only, please.

**Query** Please give the measured solubility (mole fraction) for this molecule: CC(=CC(C)=Nc1c(C)cccc1C)Nc1c(C)cccc1C
**Result** 0.266

###

settings: in n-hexane, 273.15 K
Recorded Endpoint: solubility (mole fraction)
Number only, please.

**Query** Please give the measured solubility (mole fraction) for this compound: CC(=CC(C)=Nc1c(C)cccc1C)Nc1c(C)cccc1C
**Result** 0.167

###

conditions: in THF, 283.15 K
Recorded Endpoint: solubility (mole fraction)
Number only, please.

**Query** Please give the measured solubility (mole fraction) for this molecule: CC(=CC(C)=Nc1c(C)cccc1C)Nc1c(C)cccc1C
**Result** 0.381

###

details: in n-hexane, 298.15 K
Recorded Endpoint: solubility (mole fraction)
Number only, please.

**Query** Please give the measured solubility (mole fraction) for this molecule: CC(=CC(C)=Nc1c(C)cccc1C)Nc1c(C)cccc1C
**Result** 0.316

###

details: in diethyl ether, 273.15 K
Recorded Endpoint: solubility (mole fraction)
Number only, please.

**Query** Please give the measured solubility (mole fraction) for this compound: CC(=CC(C)=Nc1c(C)cccc1C)Nc1c(C)cccc1C
**Result** 0.188

###

conditions: in THF, 298.15 K
Recorded Endpoint: solubility (mole fraction)
Number only, please.

**Query** Please give the measured solubility (mole fraction) for this compound: CC(=CC(C)=Nc1c(C)cccc1C)Nc1c(C)cccc1C
**Result** 0.456

###

conditions: in methanol, 303.15 K
Recorded Endpoint: solubility (mole fraction)
Number only, please.

**Query** Please give the measured solubility (mole fraction) for this molecule: CC(=CC(C)=Nc1c(C)cccc1C)Nc1c(C)cccc1C
**Result** 0.0041

###

settings: in n-hexane, 303.15 K
Recorded Endpoint: solubility (mole fraction)
Number only, please.

**Query** Please give the measured solubility (mole fraction) for this molecule: CC(=CC(C)=Nc1c(C)cccc1C)Nc1c(C)cccc1C
**Result** 0.347

###

conditions: in ethanol, 293.15 K
Recorded Endpoint: solubility (mole fraction)

**Query** Please give the measured solubility (mole fraction) for this compound: CC(=CC(C)=Nc1c(C)cccc1C)Nc1c(C)cccc1C
**Result** 0.0129

###

conditions: in methanol, 278.15 K
Recorded Endpoint: solubility (mole fraction)
Number only, please.

**Query** Please give the measured solubility (mole fraction) for this molecule: CC(=CC(C)=Nc1c(C)cccc1C)Nc1c(C)cccc1C
**Result** 0.0017

###

settings: in THF, 293.15 K
Recorded Endpoint: solubility (mole fraction)
Number only, please.

**Query** Please give the measured solubility (mole fraction) for this compound: CC(=CC(C)=Nc1c(C)cccc1C)Nc1c(C)cccc1C
**Result** 0.429

###

settings: in methanol, 298.15 K
Recorded Endpoint: solubility (mole fraction)
Number only, please.

**Query** Please give the measured solubility (mole fraction) for this compound: CC(=CC(C)=Nc1c(C)cccc1C)Nc1c(C)cccc1C
**Result** 0.0033

###

settings: in THF, 273.15 K
Recorded Endpoint: solubility (mole fraction)

**Query** Please give the measured solubility (mole fraction) for this molecule: CC(=CC(C)=Nc1c(C)cccc1C)Nc1c(C)cccc1C
**Result** 0.345

###

settings: in toluene, 288.15 K
Recorded Endpoint: solubility (mole fraction)
Number only, please.

**Query** Please give the measured solubility (mole fraction) for this compound: CC(=CC(C)=Nc1c(C)cccc1C)Nc1c(C)cccc1C
**Result** 0.347

###

conditions: in ethanol, 273.15 K
Recorded Endpoint: solubility (mole fraction)
Number only, please.

**Query** Please give the measured solubility (mole fraction) for this compound: CC(=CC(C)=Nc1c(C)cccc1C)Nc1c(C)cccc1C
**Result** 0.0093

Sourced from BigSolDB 2.1
